// reported Papp A→B per item
- assay.summary: Apparent permeability from apical to basolateral side in human Caco-2 cells by LC-MS/MS analysis
- Type: ADME, cell-based
quantity: Papp A→B (×10⁻⁶ cm/s)

[[record]]
mol = "O=C(C[C@H](CCN1CCCC(F)(F)C1)NC(=O)c1cc(-c2ccccc2C(F)(F)F)n(C2CCCC2)n1)NC1CCC1"
unit_of_measurement = "×10⁻⁶ cm/s"
reported_measurement = 33

[[record]]
mol = "Cc1cnn(CC[C@@H](CC(=O)NC2CCC2)NC(=O)c2cc(-c3ccccc3C(F)(F)F)n(C3CCCC3)n2)c1"
unit_of_measurement = "×10⁻⁶ cm/s"
reported_measurement = 8

[[record]]
mol = "O=C(C[C@H](CCN1CCCC(F)(F)C1)NC(=O)c1cc(-c2ccccc2C(F)(F)F)n(C2CCCC2)n1)Nc1nnn[nH]1"
unit_of_measurement = "×10⁻⁶ cm/s"
reported_measurement = 8


----------
- assay.summary: Clearance in Sprague-Dawley rat at 10 mg/kg, po measured upto 24 hrs by LC-MS/MS analysis
- Type: ADME, organism-based
- reported.conditions: in vivo
quantity: CL/F (mL/min/kg)

[[record]]
mol = "O=C(C[C@H](CCN1CCCC(F)(F)C1)NC(=O)c1cc(-c2ccccc2C(F)(F)F)n(C2CCCC2)n1)Nc1nnn[nH]1"
quantity = "CL/F"
unit_of_measurement = "mL/min/kg"
reported_measurement = 28

